FYI, the data here is from patent US4994617A.

System: mice
Test: tail hanging test, activity on the S.N.C. (central nervous system), mice, oral
Type: in vivo, mouse
Details: Mus musculus, po, 1 h, Dose: 128 mg/kg, 1 hour before the test, read-out: S.N.C.: Hanging test, activity percentages compared with the controls
// reported change in vivo at 128 mg/kg for each item listed
State the answer as a number, implicitly in %.

**Query** Query (compound): CNC(C)(CO)Cc1ccc(Cl)c(Cl)c1 (racemic) ; field requested: change in vivo at 128 mg/kg
**Result** -83

---

Tested on: mice
Assay: tail hanging test, activity on the S.N.C. (central nervous system), mice, oral
Format: in vivo, mouse
Settings: Mus musculus, po, 1 h, Dose: 128 mg/kg, 1 hour before the test, read-out: S.N.C.: Hanging test, activity percentages compared with the controls
measured parameter: change in vivo at 128 mg/kg (%)
State the answer as a number, implicitly in %.

# example entries with known answers
**Query** Query (molecule): C=CCN(C)C(C)(CO)Cc1ccc(Cl)c(Cl)c1 (racemic) ; field requested: change in vivo at 128 mg/kg
**Result** -61

**Query** Query (molecule): CC(C)C(N)(CO)Cc1ccc(Cl)c(Cl)c1 (racemic) ; field requested: change in vivo at 128 mg/kg
**Result** -67

***
**Query** Query (molecule): CCCCCC(CO)(Cc1ccc(Cl)c(Cl)c1)NC (racemic) ; field requested: change in vivo at 128 mg/kg
**Result** -71
